Recorded values, source patent US20170137512A1.

target-desc: T1, cyno Kv1.3 (Macaca fascicularis, UniProt P22001 1-575 (human entry))
T1 chain: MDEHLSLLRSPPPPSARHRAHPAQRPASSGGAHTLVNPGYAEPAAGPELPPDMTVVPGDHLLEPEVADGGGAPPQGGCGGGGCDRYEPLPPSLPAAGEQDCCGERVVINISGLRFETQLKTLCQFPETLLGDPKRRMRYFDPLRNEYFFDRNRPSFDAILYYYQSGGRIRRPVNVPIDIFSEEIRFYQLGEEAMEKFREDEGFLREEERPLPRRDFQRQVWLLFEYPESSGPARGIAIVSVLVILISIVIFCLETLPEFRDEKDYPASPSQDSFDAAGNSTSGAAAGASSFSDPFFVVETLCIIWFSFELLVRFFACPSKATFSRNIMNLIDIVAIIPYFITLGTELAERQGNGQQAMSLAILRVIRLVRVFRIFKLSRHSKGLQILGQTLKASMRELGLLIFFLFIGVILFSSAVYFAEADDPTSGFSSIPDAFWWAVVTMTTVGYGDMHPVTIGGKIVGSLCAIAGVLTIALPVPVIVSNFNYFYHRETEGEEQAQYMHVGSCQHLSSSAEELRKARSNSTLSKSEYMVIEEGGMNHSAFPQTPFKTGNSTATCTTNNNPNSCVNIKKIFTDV
experimental-readout: IC50 (nM)
Reply with just the number (in nM).

binder	experimental-readout	number
A019400012 (other) EVQLVESGGGLVQAGGSLGLSCSASGLLFSRNSAGWYRQAPGKQREFVARIRMGGSINYADTVKGRFTISRDNAKNTVYLQMNSLKPEDTAVYYCSSWRTGFYEYWGQGTLVTVSSGGGGSGGGGSGGGGSGGGGSGGGGSGGGGSGGGGSEVQLVESGGGLVQAGGSLSLSCTASGGTFRNFGMGWFRQAQGKEREFVAAISRTGGHTYYQDSVKGRFTISKDNAKNILSLQMNSLKPEDTAVYYCAARFRFGDGTYYYQRAFYDFWGQGTLVTVSS	IC50	0.5

# evaluate next
What value of measured IC50 is listed for A019400032 (VHH) DVQLVESGGGLVQAGGSLGLSCSASGLLFSRNSAGWYRQAPGKRREFVARIRMGGSINYADSVKGRFTVSRDNAKNMMYLQMNDLKPEDTAVYFCSGWREGFYEYWGQGTLVTVSSGGGGSGGGGSGGGGSGGGGSGGGGSGGGGSGGGGSEVQLVESGGGLVQAGGSLGLSCSASGLLFSRNSAGWYRQAPGKRREFVARIRMGGSINYADSVKGRFTVSRDNAKNMMYLQMNDLKPEDTAVYFCSGWREGFYEYWGQGTLVTVSS ?
0.56
